Could you please report measured growth for the items listed next?
- Test system: CCRF-CEM leukemia
- experiment_notes: NCI-60 one-dose screen, 48 h (100 = growth as untreated, 0 = no growth, -100 = all killed)
- reported_conditions: 10 µM unless noted
About 83,000 compounds went through this panel and 20% of them were active in at least one assay; those are over-represented in the sample as a whole.
Numbers only, in %.

Below: 4 compounds and their reported growth.
compound: N/C(=N/N=C/c1ccccc1)N/N=C\c1ccccc1
growth / %: 50.6

compound: Cn1ccc2c(c1=O)C(=O)c1nccc3c1c-2nc1ccccc13
growth / %: -12.8

compound: O=C1CCC2=C3C4CCCCC4C(=O)C4CCCC(OC2C1)C34 (stereo unspecified)
growth / %: 15.6

compound: COc1ccc2c(c1)C(=O)/C(=C/c1cccc(OCC(=O)Nc3nc(C)c(C)s3)c1)O2
growth / %: -69.6

Answer for every listed entry: what is its growth? The entries follow.
1. Clc1cccc(Cl)c1C(Nc1nc2ccccc2s1)Nc1nc2ccccc2s1
2. O=c1c2cc(F)ccc2sc2c(NCCCN3CCCC3)nc3ccccc3c12
3. O=c1c2c3c(sc2n2c(-c4cn(-c5ccccc5)nc4-c4ccc(Cl)cc4)nnc2n1Cc1ccccc1)CCCC3
4. Clc1cc(Cl)cc(Nc2ccc3cc(OCCCN4CCOCC4)ccc3n2)c1
5. c1ccc2cc3nc4cc5ccccc5cc4nc3cc2c1
6. COc1cc(/C=C2\C(=O)ON=C2C)cc(OC)c1OC
7. S=C(c1ccc2c(c1)OCO2)N1CCN(c2ccccc2Cl)CC1
8. COc1cc(C2CC(=O)Nc3c2c(C)nn3-c2nc3ccccc3[nH]2)c(OC)c2c1OCO2 (stereo unspecified)

[81.7, 29, 81.1, 12.9, -24.9, 92.8, 96.1, 61.7]

Answer for every listed entry: what is its growth? The entries follow.
1. CC(C)C(NC(=O)C1(NC(=O)OCc2ccccc2)CCCC1)C(=O)O (stereo unspecified)
2. Cc1ccc2c(c1)Sc1c(ccc3ccccc13)N2
3. O=Cc1ccc(O)c2ncccc12
4. C[C@H]1[C@H]2[C@H]3CC[C@@H]4[C@@]5(C)C/C(=C/c6cccnc6)C(=O)C(C)(C)[C@@H]5CC[C@@]4(C)[C@]3(C)CC[C@]23CO[C@]1(C)[C@@H](C(=O)/C=C\c1cccnc1)C3
5. CNc1ccc(NC)c2c1C(=O)c1ccccc1C2=O
6. O=c1[nH]nc(-c2ccccc2)c2c(-c3ccccc3)onc12

1. 104
2. 67.6
3. -40.7
4. 17.9
5. 84.3
6. 21.3

Answer for every listed entry: what is its growth? The entries follow.
1. Cc1c(Cl)cc(-n2c(=O)c3ccccc3c3ccccc3c2=O)cc1Cl
2. O=C(c1ccc(Nc2nccc(NCCCCNc3ccnc4cc(Cl)ccc34)n2)cc1)N1CCCCC1

1: 97.9; 2: -11.8

Please report the measured growth for COc1cccc(-c2nn(-c3ccccc3)cc2-c2ccnc(NCCNC(=O)Nc3ccc(Cl)c(Cl)c3)c2)c1 8.1

---

- System: BT-549 breast
- experiment_notes: NCI-60 one-dose screen, 48 h (100 = growth as untreated, 0 = no growth, -100 = all killed)
- reported_conditions: 10 µM unless noted
Compounds without any hit were thinned out: in the full panel of roughly 83,000, 20% have a hit.
Grouping key: growth. Bins: interval 1 (below 60%), interval 2 (60% to below 80%), interval 3 (80% or more)

Take a look at these entries with their results.
compound: Cc1c(O)cc(-c2cnc(N/N=C\c3ccc(Cl)cc3)s2)c(O)c1C
assigned_class: interval 2
//
compound: O=C1OC(c2nc3ccccc3s2)=C/C1=C\c1ccc(O)cc1
assigned_class: interval 3
//
compound: CCCCCCCCCCN(CCCCCCCCCC)CC(=O)c1ccc2cc(Br)c3ccccc3c2c1
assigned_class: interval 2
//
compound: COc1ccc(-c2nc(SC(C)C)nc(NNC(N)=S)c2C#N)cc1
assigned_class: interval 2
//
compound: C(=N\Nc1ncc(-c2cc3cc4c(cc3o2)OCO4)s1)/c1ccco1
assigned_class: interval 1
//
compound: CC(=O)O[C@]1(C(C)=O)CCC2C3C[C@H](C)C4=CC(=O)CC[C@]4(C)C3CC[C@@]21C (some centres not stated)
assigned_class: interval 2
//
compound: Cc1cc(NCc2cc(Nc3ccnc4cc(Cl)ccc34)ccc2F)nc(Cl)n1
assigned_class: interval 1
//
compound: O=C1Nc2ccccc2/C1=C/c1cn(C(=O)c2c(Cl)cccc2Cl)c2ccccc12
assigned_class: interval 1

Which growth band matches Cc1cccc(NC(=O)N/C(N)=N/c2nc(C)c(C)s2)c1 ? interval 2

Which growth band matches O=C1/C(=C\c2cccnc2)SC(=S)N1CCc1ccc(O)cc1 ? interval 2

Which growth band matches CCCCCCCCCCCCCCCCCCOc1ccc(CC(=O)OCC[N+]2(C)CCCC2)cc1 ? interval 3

Which growth band matches COc1ccc(-c2csc(C3=C(O)CN(C(C)C)C3=N)n2)cc1OC ? interval 3

Which growth band matches COc1ccc(-c2nc3c(N)c(CO)c(C)nc3o2)cc1 ? interval 3

Which growth band matches COc1cc2nc(Cl)nc(Nc3ccc(S(=O)(=O)Nc4nccs4)cc3)c2cc1OC ? interval 3

Which growth band matches CC1O[C@@H](OC2[C@H](OC(=O)/C=C/c3ccc(O)c(O)c3)C(COC3O[C@H](C)C(O)C(O)[C@@H]3O)O[C@@H](OCCc3ccc(O)c(O)c3)[C@H]2O)[C@@H](O)C(O)[C@H]1O (some centres not stated) ? interval 3

Which growth band matches CN(C)CCC=C1c2ccccc2C(C)(C)c2ccccc21 ? interval 3

Which growth band matches N#CC1=C(/N=C/c2ccccc2)Oc2c(ccc3ccccc23)C1c1ccccc1 (configuration not stated) ? interval 1

Which growth band matches COC(=O)c1c2c(c[n+]([O-])c1C)C(=O)C=CC2=O ? interval 2

Which growth band matches COc1cc(C(=O)/C=C/c2c(C(F)(F)F)nc3sccn23)cc(OC)c1OC ? interval 1

Which growth band matches COc1cc(C2CC(=O)Nc3c2c(C)nn3-c2nc3ccccc3[nH]2)c(OC)c2c1OCO2 (configuration not stated) ? interval 2

Which growth band matches O=C(Cc1ccc(F)c(F)c1)Nc1cc(C2(C(F)(F)F)CC2)nn1Cc1ccccc1 ? interval 1

Which growth band matches COC(=O)[C@]12CC[C@@H](C)[C@H](C)[C@@H]1C1=CC[C@@H]3[C@@]4(C)C(C=O)=C[C@@](C)(COC(=O)c5ccco5)[C@@H]4C(=O)C[C@@]3(C)[C@]1(C)CC2 ? interval 1

Which growth band matches CN1CCN(C(=O)c2c3c(n4ccccc24)C(=O)c2ncccc2C3=O)CC1 ? interval 1
